Target Or System: Nuclear receptor ROR-gamma (Mus musculus, UniProt P51450)
Sequence (P51450 whole entry): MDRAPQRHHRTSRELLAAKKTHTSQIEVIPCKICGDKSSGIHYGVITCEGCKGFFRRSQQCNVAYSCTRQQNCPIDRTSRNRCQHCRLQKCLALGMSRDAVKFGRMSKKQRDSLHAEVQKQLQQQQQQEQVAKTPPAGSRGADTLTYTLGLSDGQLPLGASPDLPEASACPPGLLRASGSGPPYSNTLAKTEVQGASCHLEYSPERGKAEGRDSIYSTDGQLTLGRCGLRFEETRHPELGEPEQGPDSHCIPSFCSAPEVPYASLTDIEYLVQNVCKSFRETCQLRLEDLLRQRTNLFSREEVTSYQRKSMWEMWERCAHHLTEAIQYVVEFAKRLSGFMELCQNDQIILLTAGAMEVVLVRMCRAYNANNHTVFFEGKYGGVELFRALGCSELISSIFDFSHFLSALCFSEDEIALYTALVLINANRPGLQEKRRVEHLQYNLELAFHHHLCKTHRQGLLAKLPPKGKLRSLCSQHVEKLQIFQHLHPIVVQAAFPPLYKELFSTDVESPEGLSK
Protocol Summary: Inverse agonist activity at RORgammat in mouse CD positive T cells assessed as inhibition of Th17 cell differentiation by measuring 1L-17 release after 3 days by ELISA
Type: cell-based
Outcome Measure: IC50 (µM)

(A) CCS(=O)(=O)c1ccc(CC(=O)Nc2ccc(-c3ccc(CC4CCN(C(=O)C(C)(C)C)CC4)cc3C(F)(F)F)c(Cl)c2)cc1
(B) CCS(=O)(=O)c1ccc(CC(=O)Nc2ccc(-c3ccccc3C(F)(F)F)c(Cl)c2)cc1
Request: Among A and B , whose measured IC50 is the smaller figure? Reply briefly: the label of your chosen item.
Response: A
(A: 0.0251 µM, B: 0.2 µM)
